# inhibition per entry
Target: Mannose-6-phosphate isomerase (Homo sapiens) (UniProt P34949)
Sequence (P34949 whole entry, looked up): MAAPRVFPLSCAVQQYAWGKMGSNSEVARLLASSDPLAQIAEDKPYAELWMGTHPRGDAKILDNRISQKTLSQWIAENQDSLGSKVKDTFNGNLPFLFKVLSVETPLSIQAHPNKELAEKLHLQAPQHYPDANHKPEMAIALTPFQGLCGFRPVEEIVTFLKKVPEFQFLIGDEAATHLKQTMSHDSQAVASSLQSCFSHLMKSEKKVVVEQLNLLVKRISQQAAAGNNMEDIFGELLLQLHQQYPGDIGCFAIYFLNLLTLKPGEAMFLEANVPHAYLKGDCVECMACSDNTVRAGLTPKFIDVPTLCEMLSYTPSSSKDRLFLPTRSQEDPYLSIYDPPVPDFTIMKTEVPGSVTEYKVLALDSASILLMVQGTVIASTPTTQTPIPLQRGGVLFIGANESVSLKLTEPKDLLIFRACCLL
Assay: inhibitors of human PMI, primary screen, biochemical, fluorescence intensity, coupled assay (AID 1209);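 note: plate controls were DMSO vehicle for no effect and wells lacking substrate for full effect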
Details: purified PMI enzyme, at 20 µM, active compounds read high
Out of some 190,000 compounds screened, about 810 (0.43%) were called active. Many of the other results were omitted from the sample, so actives are more common in it than they were.
Property measured: inhibition (%)

compound="CNc1nc2[nH]c(=O)c3c(c2s1)OC(N)=C(C#N)C3c1cccc(F)c1 (centres undefined)" measured_target="Mannose-6-phosphate isomerase (Homo sapiens) (UniProt P34949)" result=39.7
compound=Nn1c(COc2ccc(Cl)cc2)nc2ccccc2c1=O measured_target="Mannose-6-phosphate isomerase (Homo sapiens) (UniProt P34949)" result=-0.6
compound=Nc1ccc2c(c1)OC1(CCCC1)O2 measured_target="Mannose-6-phosphate isomerase (Homo sapiens) (UniProt P34949)" result=6.1
compound=S=C(NCCN1CCOCC1)N/N=C/c1ccccc1 measured_target="Mannose-6-phosphate isomerase (Homo sapiens) (UniProt P34949)" result=2
compound=c1ccc(-c2nnc(CSc3nncs3)o2)cc1 measured_target="Mannose-6-phosphate isomerase (Homo sapiens) (UniProt P34949)" result=16.2
compound="CCNc1nc2[nH]c(=O)c3c(c2s1)OC(N)=C(C#N)C3c1ccc(C)cc1 (centres undefined)" measured_target="Mannose-6-phosphate isomerase (Homo sapiens) (UniProt P34949)" result=54.6
compound=O=C(O)c1ccc(Nc2ncnc3c2cnn3Cc2ccccc2)cc1 measured_target="Mannose-6-phosphate isomerase (Homo sapiens) (UniProt P34949)" result=7.1
compound=Oc1ccc(/C=N/NC(=S)Nc2cccnc2)cc1O measured_target="Mannose-6-phosphate isomerase (Homo sapiens) (UniProt P34949)" result=43.5
compound=COc1cccc(S(=O)(=O)N2CCOCC2)c1 measured_target="Mannose-6-phosphate isomerase (Homo sapiens) (UniProt P34949)" result=1.2
